Give IC50 for every item shown.
molecular target: 5-hydroxytryptamine receptor 6 (Homo sapiens, UniProt P50406); test: Inhibitory concentration against human 5-hydroxytryptamine 6 receptor transfected in HeLa cells in cAMP assay
Sequence (P50406 whole entry): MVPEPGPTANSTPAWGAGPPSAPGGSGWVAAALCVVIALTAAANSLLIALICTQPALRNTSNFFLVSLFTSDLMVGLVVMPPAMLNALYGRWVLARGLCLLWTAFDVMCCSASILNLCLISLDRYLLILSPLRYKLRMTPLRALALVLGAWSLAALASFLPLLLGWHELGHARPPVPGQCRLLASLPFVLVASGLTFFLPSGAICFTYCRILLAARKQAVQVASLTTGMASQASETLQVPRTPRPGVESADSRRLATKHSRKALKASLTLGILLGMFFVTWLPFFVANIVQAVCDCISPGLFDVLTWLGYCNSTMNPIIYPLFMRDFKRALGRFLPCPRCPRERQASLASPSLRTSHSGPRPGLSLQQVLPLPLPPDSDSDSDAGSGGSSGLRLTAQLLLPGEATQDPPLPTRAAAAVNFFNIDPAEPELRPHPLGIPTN
One number for each entry, in nM.

Examples from the recorded data:
INSERT INTO measurements (smiles_repr, reading_unit, reading) VALUES
  ('CNCCn1cc(S(=O)(=O)c2cccc3ccccc23)c2ccccc21', 'nM', 359),
  ('COc1cccc2c(S(=O)(=O)c3ccccc3)cn(CCN(C)C)c12', 'nM', 23),
  ('CN(C)CCn1cc(S(=O)(=O)c2cccc3ccccc23)c2ccccc21', 'nM', 47);

// below: IC50 requested for another compound
Tell me IC50 reported for `CN(C)CCn1cc(S(=O)(=O)c2ccccc2OC(F)(F)F)c2ccccc21`
792

====

target: 5-hydroxytryptamine receptor 6 (Homo sapiens, UniProt P50406); assay: Inhibitory potency against human 5-hydroxytryptamine 6 receptor transfected in HeLa cells in cAMP assay; assay type: cell-based
Endpoint Label: Imax (%)
Give bare numbers, in %.

Examples from the recorded data:
INSERT INTO measurements (smiles_repr, assay_system, endpoint_label, reading) VALUES
  ('CNCCn1cc(S(=O)(=O)c2cccc3ccccc23)c2ccccc21', '5-hydroxytryptamine receptor 6 (Homo sapiens, UniProt P50406)', 'Imax', 97),
  ('CN(C)CCn1cc(S(=O)(=O)c2cccc3ccccc23)c2ccccc21', '5-hydroxytryptamine receptor 6 (Homo sapiens, UniProt P50406)', 'Imax', 97),
  ('COc1cccc2c(S(=O)(=O)c3ccccc3)cn(CCN(C)C)c12', '5-hydroxytryptamine receptor 6 (Homo sapiens, UniProt P50406)', 'Imax', 80.5);

// below: Imax requested for another molecule
Tell me Imax reported for `CN(C)CCn1cc(S(=O)(=O)c2ccccc2OC(F)(F)F)c2ccccc21`
100

====

target: 5-hydroxytryptamine receptor 6 (Homo sapiens, UniProt P50406); assay: Binding affinity against human 5-hydroxytryptamine 6 receptor transfected in HeLa cells
Give Ki for every item shown.
Give bare numbers, in nM.

Examples from the recorded data:
INSERT INTO assay_data (smiles_repr, endpoint_label, reading) VALUES
  ('CNCCn1cc(S(=O)(=O)c2ccccc2)c2ccccc21', 'Ki', 15.5),
  ('NCCn1cc(S(=O)(=O)c2ccccc2)c2cc(F)ccc21', 'Ki', 27),
  ('CN(C)CCn1cc(S(=O)(=O)c2cccc3ccccc23)c2ccccc21', 'Ki', 3.7);

Look up Ki for the entries below, preserving their order.
1. NCCc1cn(S(=O)(=O)c2ccccc2)c2ccccc12
2. CNCCc1cn(S(=O)(=O)c2ccccc2)c2ccccc12
3. CNCCn1cc(S(=O)(=O)c2cccc3ccccc23)c2ccccc21

[10.3, 5, 5.7]

====

target: UniProtKB P50406; assay: Percent inhibitory activity against human 5-hydroxytryptamine 6 receptor transfected in HeLa cells at 1 uM; type: cell-based
Endpoint Label: inhibition (%)
Answers are plain numbers, in %.

Examples from the recorded data:
INSERT INTO results (smiles_repr, reading) VALUES
  ('COc1ccc2c(c1)c(S(=O)(=O)c1ccccc1)cn2CCN', 86),
  ('CN(C)CCn1cc(S(=O)(=O)c2ccccc2)c2ccc(C#N)cc21', 42),
  ('COc1ccc2c(c1)c(S(=O)(=O)c1ccccc1)cn2CCN1CCCCC1', 55);

// below: inhibition requested for another compound
Tell me inhibition reported for `COc1ccc2c(S(=O)(=O)c3ccccc3)cn(CCN)c2c1`
78

Reference source for all entries: ChEMBL document CHEMBL1138014
